Values were extracted from PubChem BioAssay AID248.

Could you please report measured T/C for the items listed next?
- Test system: L1210 leukemia ip in BDF1 mice, survival T/C
- test-method-notes: NCI In Vivo Anticancer Drug Screen. Data for tumor model L1210 Leukemia (intraperitoneal) in B6D2F1 (BDF1) mice
- assay-conditions: endpoint: mean survival time; dose: 50.0 mg/kg/injection; schedule: Q04DX002 (ip); vehicle: Klucel (hydroxypropylcellulose) (HPC); higher = longer survival
Toxic doses and inconclusive results are not listed.

Look over these answered cases.
mol-smiles: CCOC(=O)Cc1nc2ccccc2[nH]c1=O
T/C: 107 % of control
--
mol-smiles: CC(C)=CCC1(CC=C(C)C)C(=O)N(c2ccccc2)N(c2ccccc2)C1=O
T/C: 93 % of control

Now look at this one.
Could you please provide reported T/C for CSC(=NCc1ccccc1)NC1CCCCC1 ? Thanks! 107 % of control
